Every entry's value here was drawn from ChEMBL document CHEMBL5126504.

# Protocol Details: Selectivity index, ratio of IC50 for cytotoxicity against human BEAS-2B cells to IC50 for cytotoxicity against human A549 cells
# Assay type: toxicity, cell-based
# Condition Set: BEAS-2B cells and A549 cells, read-out: Ratio IC50
Reported values of selectivity ratio for individual entries
Number, no unit, nothing else.

1. Nc1ccn([C@@H]2O[C@H](CO)[C@@H](O)C2(F)F)c(=O)n1
0.88
2. CC(=O)OC[C@H]1OC(OCCCCCC(=O)Nc2ccn(C3OC(CO)C(O)C3(F)F)c(=O)n2)[C@H](O)[C@H](O)[C@H]1O (stereo partly drawn)
20.9

Now for another entry.
So, NC(=O)O[C@@H]1[C@H](O)[C@@H](O[C@H]2C(OCCCCCC(=O)Nc3ccn(C4OC(CO)C(O)C4(F)F)c(=O)n3)O[C@H](CO)[C@H](O)[C@H]2O)O[C@H](CO)[C@H]1O (stereo partly drawn) ? Its selectivity ratio was 20
